In this section, each of the compounds is paired with its reported pEC50.
- assayedTarget: GPR40 of human origin (Homo sapiens)
- Sequence (O14842 whole entry): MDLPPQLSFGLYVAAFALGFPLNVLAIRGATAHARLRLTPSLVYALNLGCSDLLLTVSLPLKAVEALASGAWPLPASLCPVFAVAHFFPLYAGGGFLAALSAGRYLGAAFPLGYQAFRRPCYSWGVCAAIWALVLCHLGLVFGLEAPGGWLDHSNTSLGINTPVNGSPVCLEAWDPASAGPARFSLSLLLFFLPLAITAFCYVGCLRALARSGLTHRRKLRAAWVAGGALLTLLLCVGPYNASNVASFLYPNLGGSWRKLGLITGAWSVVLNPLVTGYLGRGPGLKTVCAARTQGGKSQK
- testDescription: Agonist action on GPR40 of human origin (intracellular Ca2+ change)
- statedConditions: CHO cell strain stably expressing GPR40 of human origin; change in Ca2+ concentration, fluorescent calcium indicator
pEC50: −log10 of the molar value.

Consider the reported pEC50 for these compounds:
compound | pEC50
Cc1nc(OCCC(C)(C)O)ccc1-c1cccc2c1OCC2Oc1ccc(-c2cc(O)n[s+]2[O-])cc1 (single isomer, unassigned) | > 6.52
[O-][s+]1nc(O)cc1-c1ccc(OCc2ccc(CN3CCC4(C=Cc5ccccc54)CC3)cc2)cc1 (centres unmarked) | 5.52 to 6.52
[O-][s+]1nc(O)cc1-c1ccc(O[C@@H]2CCc3c(Oc4cccnc4)cccc32)cc1 (single isomer, unassigned) | > 6.52

May I ask what pEC50 has been recorded for Cc1ccc(C)c(-c2cccc3c2CC[C@H]3Oc2ccc(-c3cc(O)n[s+]3[O-])cc2)c1 (some centres unmarked) ?
> 6.52

And the next one, CS(=O)(=O)c1ccc(Oc2cccc3c2CC[C@H]3Oc2ccc(-c3cc(O)n[s+]3[O-])cc2)cc1 (some centres unmarked) ?
> 6.52

Try this compound too: [O-][s+]1nc(O)cc1-c1ccc(O[C@@H]2CCc3c(-c4ccc(Cl)cc4C(F)(F)F)cccc32)cc1 (some centres unmarked)
5.52 to 6.52

Queued: COc1ccc(-c2cccc3c2CC[C@H]3Oc2ccc(-c3cc(O)n[s+]3[O-])cc2)c(Cl)c1 (some centres unmarked)
> 6.52

Now give it for [O-][s+]1nc(O)cc1-c1ccc(O[C@@H]2CCc3c(-c4cc(F)cc(F)c4)cccc32)cc1 (some centres unmarked) too.
> 6.52

Follow-up item: COc1ccc(Oc2cccc3c2OCC3Oc2ccc(-c3cc(O)n[s+]3[O-])cc2)cn1 (single isomer, unassigned) [Example 152-a]
> 6.52

How about this compound: [O-][s+]1nc(O)cc1-c1ccc(O[C@@H]2CCc3c(-c4cc(F)ccc4F)cccc32)cc1 (some centres unmarked)
> 6.52

Try this compound too: [O-][s+]1nc(O)cc1-c1ccc(O[C@@H]2CCc3c(-c4cncc(Cl)c4)cccc32)cc1 (some centres unmarked)
> 6.52

Another compound: Cc1cc(OCc2ccccc2)ccc1-c1cccc2c1CC[C@H]2Oc1ccc(-c2cc(O)n[s+]2[O-])cc1 (some centres unmarked)
> 6.52

Ref: patent US8629102B2
